Here the recorded % at 1 μM hA2A (percentage displacement of specific binding) is given for each entry.
system_tested: hA2AAR (Homo sapiens)
Construct: expressed in transfected cells; host or cells: HeLa (HeLa-A2A) cell membranes
Sequence (P29274 whole entry): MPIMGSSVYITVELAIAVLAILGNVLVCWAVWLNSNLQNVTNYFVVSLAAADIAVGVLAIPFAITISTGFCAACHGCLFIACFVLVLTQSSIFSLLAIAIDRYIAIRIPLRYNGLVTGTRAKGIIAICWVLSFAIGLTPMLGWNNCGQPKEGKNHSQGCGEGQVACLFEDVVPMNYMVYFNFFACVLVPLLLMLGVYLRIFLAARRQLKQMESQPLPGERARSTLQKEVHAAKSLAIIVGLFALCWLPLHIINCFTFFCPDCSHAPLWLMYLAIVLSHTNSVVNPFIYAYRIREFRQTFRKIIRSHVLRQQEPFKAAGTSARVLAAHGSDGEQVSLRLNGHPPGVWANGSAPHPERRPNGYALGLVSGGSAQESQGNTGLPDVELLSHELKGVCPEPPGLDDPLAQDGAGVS
assay_comment: Radioligand binding competition, [3H]ZM241385, membranes from HeLa-A2A cells
assay_conditions: 1 μM, [3H]ZM241385, human HeLa cells, n = 2
Experimental: All ligands reported in Tables 1–5 were obtained and tested as racemic mixtures. The whole set was evaluated in silico with a combination of a Rdkit[37] […] A brief description is given below. […] Non-specific binding was determined in the presence of 10 μM R-PIA. […] Non-specific binding was determined in the presence of 100 μM R-PIA. […] After the incubation time, membranes were washed and filtered and radioactivity was detected in a MicroBeta TriLux reader (PerkinElmer).
experimental_endpoint: % at 1 μM hA2A (percentage displacement of specific binding) (%)

| compound | endpoint_value |
| --- | --- |
| CC1=C(C(=O)OC(C)C)C(c2ccoc2)n2c(nc3ccc(Cl)cc32)N1 (centres unmarked) [15l] | 4 |
| CCOC(=O)C1=C(C)Nc2nc3ccc(Cl)cc3n2C1c1ccoc1 (centres unmarked) [15k] | 30 |
| CCOC(=O)C1=C(C)Nc2nc3cc(Cl)ccc3n2C1c1ccco1 (centres unmarked) [16i] | 10 |
| CCOC(=O)C1=C(C)Nc2nc3cc(F)c(F)cc3n2C1c1ccsc1 (centres unmarked) [14g] | 1 |
| CC1=C(C(=O)OC(C)C)[C@H](c2ccco2)n2c(nc3cc(Cl)ccc32)N1 [(R)-16j] | 37 |

---

system_tested: hA1AR (Homo sapiens)
Sequence (P30542 whole entry): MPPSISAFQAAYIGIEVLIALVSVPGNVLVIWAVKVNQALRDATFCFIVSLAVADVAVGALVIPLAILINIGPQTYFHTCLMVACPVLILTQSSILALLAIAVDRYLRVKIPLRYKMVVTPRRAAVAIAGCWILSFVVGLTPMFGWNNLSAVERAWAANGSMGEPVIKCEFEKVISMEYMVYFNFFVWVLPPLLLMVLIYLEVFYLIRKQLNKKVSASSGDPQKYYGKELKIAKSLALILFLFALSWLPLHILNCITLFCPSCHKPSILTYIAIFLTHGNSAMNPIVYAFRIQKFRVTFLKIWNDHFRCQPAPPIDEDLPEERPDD
assay_comment: Radioligand binding competition, [3H]DPCPX, membranes from CHO-A1 cells
assay_conditions: 1 μM, [3H]DPCPX, human CHO cells, n = 2
In this section, each of the compounds is paired with its reported % at 1 μM hA1 (percentage displacement of specific binding).
experimental_endpoint: % at 1 μM hA1 (percentage displacement of specific binding) (%)

| compound | endpoint_value |
| --- | --- |
| CCOC(=O)C1=C(C)Nc2nc3cc(Cl)ccc3n2[C@H]1c1cocn1 [(R)-18c] | 9 |
| CCOC(=O)C1=C(C)Nc2nc3cc(F)c(F)cc3n2C1c1ccsc1 (stereo not drawn) [14g] | 1 |
| CCOC(=O)C1=C(C)Nc2nc3ccc(Cl)cc3n2C1c1cccs1 (stereo not drawn) [15m] | 2 |
| CC1=C(C(=O)OC(C)C)C(c2cccs2)n2c(nc3cc(Br)ccc32)N1 (stereo not drawn) [16v] | 1 |
| CCOC(=O)C1=C(C)Nc2nc3ccc(F)cc3n2C1c1ccco1 (stereo not drawn) [15a] | 16 |
| CC1=C(C(=O)OC(C)C)C(c2ccsc2)n2c(nc3ccc(Cl)cc32)N1 (stereo not drawn) [15p] | 7 |
| CC1=C(C(=O)OC(C)C)C(c2ccco2)n2c(nc3ccc(Br)cc32)N1 (stereo not drawn) [15r] | 46 |
| CCOC(=O)C1=C(C)Nc2nc3cc(F)ccc3n2C1c1ccco1 (stereo not drawn) [16a] | 10 |
| CC1=C(C(=O)OC(C)C)C(c2cccs2)n2c(nc3cc(Br)c(Br)cc32)N1 (stereo not drawn) [14v] | 1 |
| CC1=C(C(=O)OC(C)C)C(c2ccsc2)n2c(nc3cc(Br)ccc32)N1 (stereo not drawn) [16x] | 2 |
| CCOC(=O)C1=C(C)Nc2nc3ccc(F)cc3n2C1c1ccoc1 (stereo not drawn) [15c] | 26 |
| CCOC(=O)C1=C(C)Nc2nc3cc(Br)c(Br)cc3n2C1c1ccoc1 (stereo not drawn) [14s] | 2 |
| CCOC(=O)C1=C(C)Nc2nc3cc(Br)c(Br)cc3n2C1c1ccco1 (stereo not drawn) [14q] | 1 |
| CCOC(=O)C1=C(C)Nc2nc3cc(Br)c(Br)cc3n2C1c1ccsc1 (stereo not drawn) [14w] | 2 |
| CC1=C(C(=O)OC(C)C)C(c2cccs2)n2c(nc3cc(F)ccc32)N1 (stereo not drawn) [16f] | 2 |
| CC1=C(C(=O)OC(C)C)C(c2ccco2)n2c(nc3cc(Cl)c(Cl)cc32)N1 (stereo not drawn) [14j] | 43 |
| CC1=C(C(=O)OC(C)C)C(c2cocn2)n2c(nc3cc(F)ccc32)N1 (stereo not drawn) [18b] | 29 |
| CCOC(=O)C1=C(C)Nc2nc3cc(F)c(F)cc3n2C1c1ccco1 (stereo not drawn) [14a] | 1 |
| CC1=C(C(=O)OC(C)C)C(c2cccs2)n2c(nc3cc(Cl)c(Cl)cc32)N1 (stereo not drawn) [14n] | 1 |
| CC1=C(C(=O)OC(C)C)C(c2ccco2)n2c(nc3cc(F)ccc32)N1 (stereo not drawn) [16b] | 11 |
| CC1=C(C(=O)OC(C)C)C(c2ccoc2)n2c(nc3ccc(Br)cc32)N1 (stereo not drawn) [15t] | 11 |
| CCOC(=O)C1=C(C)Nc2nc3cc(Br)c(Br)cc3n2C1c1cccs1 (stereo not drawn) [14u] | 2 |
| CC1=C(C(=O)OC(C)C)C(c2ccoc2)n2c(nc3cc(Cl)ccc32)N1 (stereo not drawn) [16l] | 27 |
| CCOC(=O)C1=C(C)Nc2nc3cc(Cl)ccc3n2C1c1ccco1 (stereo not drawn) [16i] | 23 |
| CCOC(=O)C1=C(C)Nc2nc3cc(Br)ccc3n2C1c1ccsc1 (stereo not drawn) [16w] | 1 |
| CC1=C(C(=O)OC(C)C)C(c2ccco2)n2c(nc3ccc(F)cc32)N1 (stereo not drawn) [15b] | 32 |
| CCOC(=O)C1=C(C)Nc2nc3cc(Cl)ccc3n2C1c1ccsc1 (stereo not drawn) [16o] | 2 |
| CCOC(=O)C1=C(C)Nc2nc3cc(Cl)c(Cl)cc3n2C1c1ccoc1 (stereo not drawn) [14k] | 33 |
| CC1=C(C(=O)OC(C)C)[C@H](c2ccco2)n2c(nc3cc(F)ccc32)N1 [(R)-16b] | 15 |
| CCOC(=O)C1=C(C)Nc2nc3cc(Cl)c(Cl)cc3n2C1c1cccs1 (stereo not drawn) [14m] | 2 |
| CCOC(=O)C1=C(C)Nc2nc3cc(Cl)ccc3n2C1c1ccoc1 (stereo not drawn) [16k] | 31 |
| CC1=C(C(=O)OC(C)C)[C@@H](c2ccco2)n2c(nc3cc(F)ccc32)N1 [(S)-16b] | 26 |
| CC1=C(C(=O)OC(C)C)C(c2cccs2)n2c(nc3cc(Cl)ccc32)N1 (stereo not drawn) [16n] | 2 |
| CC1=C(C(=O)OC(C)C)C(c2ccsc2)n2c(nc3cc(Cl)c(Cl)cc32)N1 (stereo not drawn) [14p] | 2 |
| CC1=C(C(=O)OC(C)C)C(c2cocn2)n2c(nc3cc(Cl)ccc32)N1 (stereo not drawn) [18d] | 23 |
| CC1=C(C(=O)OC(C)C)C(c2ccoc2)n2c(nc3ccc(Cl)cc32)N1 (stereo not drawn) [15l] | 6 |
| CCOC(=O)C1=C(C)Nc2nc3ccc(F)cc3n2C1c1cccs1 (stereo not drawn) [15e] | 25 |
| CC1=C(C(=O)OC(C)C)C(c2cocn2)n2c(nc3ccc(F)cc32)N1 (stereo not drawn) [17b] | 34 |
| CC1=C(C(=O)OC(C)C)C(c2ccco2)n2c(nc3cc(Cl)ccc32)N1 (stereo not drawn) [16j] | 35 |
